# SYSTEM TESTED: KRas G12C (Homo sapiens, UniProt P01116, G12C);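 note: binding to KRas assessed by TR-FRET displacement after one hour incubation at room temperature, potency fitted from percent-of-control values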
# Sequence (P01116 1-169 isoform P01116-2 G12C): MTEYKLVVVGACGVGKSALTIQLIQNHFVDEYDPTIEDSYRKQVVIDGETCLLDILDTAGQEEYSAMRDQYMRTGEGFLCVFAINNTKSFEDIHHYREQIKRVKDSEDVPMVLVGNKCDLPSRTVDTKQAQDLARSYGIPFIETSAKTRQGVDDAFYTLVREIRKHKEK
# ASSAY NAME: biochemical
Measured IC50 accompanies every entry in the list below.

COMPOUND | IC50
Fc1c(-c2cccc3cccc(F)c23)ncc2c(NCCNc3cccnc3)nc(OCC34CCCN3CCC4)nc12 | 10.4 µM
O=C1CC2(CCCN(c3nc(OCC45CCCN4CCC5)nc4c(F)c(-c5cccc6cccc(F)c56)ncc34)C2)CN1 (stereo not drawn) | 3.18 µM
CCc1cccc2cccc(-c3ncc4c(N5CCCC6(CC(=O)N6)C5)nc(OCC56CCCN5CCC6)nc4c3F)c12 (stereo not drawn) | 0.068 µM
CCc1c(F)ccc2cc(O)cc(-c3ncc4c(N5CCC[C@@](C)(O)C5)nc(OCC5(CN6CCCC6)CC5)nc4c3F)c12 | ≤ 0.002 µM
CCc1c(F)ccc2cc(O)cc(-c3ncc4c(N5CCC[C@]6(C5)C[C@@](C)(O)C6)nc(OCC56CCCN5CCC6)nc4c3F)c12 | 2.62 µM
CN(Cc1c[nH]c2ncccc12)c1nc(OCC23CCCN2CCC3)nc2c(F)c(-c3cccc4cccc(F)c34)ncc12 | 1.19 µM
O=C1C[C@@]2(CCN(c3nc(OCC45CCCN4CCC5)nc4c(F)c(-c5cccc6cccc(F)c56)ncc34)C2)CN1 | 9.86 µM
O=C1NC(=O)C2(CCCN(c3nc(OCC45CCCN4CCC5)nc4c(F)c(-c5cccc6cccc(CO)c56)ncc34)C2)N1 (stereo not drawn) | 0.608 µM
NC(=O)C1CCCN(c2nc(OCC34CCCN3CCC4)nc3c(F)c(-c4cccc5cccc(F)c45)ncc23)C1 (stereo not drawn) | 3.08 µM
O=C1NCC2(CCCN(c3nc(OCC45CCCN4CCC5)nc4c(F)c(-c5cccc6cccc(Cl)c56)ncc34)C2)N1 (stereo not drawn) | 0.044 µM
CCc1c(F)ccc2cc(O)cc(-c3ncc4c(N5CCC[C@@](C)(O)C5)nc(OCC56CCCN5CCC6)nc4c3F)c12 | ≤ 0.002 µM
OC1CC2CC1CN(c1nc(OCC34CCCN3CCC4)nc3c(F)c(-c4cccc5cccc(F)c45)ncc13)C2 (stereo not drawn) | 0.891 µM
CCc1c(F)ccc2cc(O)cc(-c3ncc4c(N5CCCCC5)nc(OC[C@@H]5C[C@@H](O)CN5C)nc4c3F)c12 | 0.018 µM
CCc1cccc2cccc(-c3ncc4c(N5CCCC(CS(N)(=O)=O)C5)nc(OCC56CCCN5CCC6)nc4c3F)c12 (stereo not drawn) | 0.426 µM
CCc1cccc2cccc(-c3ncc4c(NCc5cccnc5N)nc(OCC56CCCN5CCC6)nc4c3F)c12 | 0.02 µM
Fc1c(-c2cccc3cccc(F)c23)ncc2c(NCc3cn[nH]c3)nc(OCC34CCCN3CCC4)nc12 | 4.05 µM
OC1CCCN(c2nc(OCC34CCCN3CCC4)nc3c(F)c(-c4cccc5cccc(F)c45)ncc23)CC1 (stereo not drawn) | 2.53 µM
O=S1(=O)NCC2(CCCN(c3nc(OC[C@@]45CCCN4C[C@H](F)C5)nc4c(F)c(-c5cc(O)cc6ccc(F)c(Cl)c56)ncc34)C2)N1 (stereo partly drawn) | ≤ 0.002 µM
O=S1(=O)CC(CNc2nc(OCC34CCCN3CCC4)nc3c(F)c(-c4cccc5cccc(CO)c45)ncc23)C1 | 8.2 µM
Cc1cc2[nH]ncc2c(-c2ncc3c(N4CCCC(C)(O)C4)nc(OCC45CCCN4CCC5)nc3c2F)c1C (stereo not drawn) | 0.679 µM
OC1CC2(CCCN(c3nc(OCC45CCCN4CCC5)nc4c(F)c(-c5cccc6cccc(F)c56)ncc34)C2)C1 (stereo not drawn) | 1.65 µM

Source listed as patent US12398154B2.
